Data credit: paper PMC9587021

tgt: TAS2R16 (Homo sapiens)
Sequence (Q9NYV7 whole entry): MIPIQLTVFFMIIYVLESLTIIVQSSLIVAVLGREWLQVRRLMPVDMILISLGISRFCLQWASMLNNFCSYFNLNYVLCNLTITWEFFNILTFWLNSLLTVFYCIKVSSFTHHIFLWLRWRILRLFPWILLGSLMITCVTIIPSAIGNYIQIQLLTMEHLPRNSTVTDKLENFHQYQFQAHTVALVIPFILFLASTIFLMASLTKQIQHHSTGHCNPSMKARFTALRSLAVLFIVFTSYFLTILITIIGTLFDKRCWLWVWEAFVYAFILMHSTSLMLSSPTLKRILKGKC
assay summary: cell-based
Parameters: bioluminescence intracellular calcium release assay, mt-clytin II with coelenterazine, Gα16-gust44 co-expressed
condition label: 293AD cells
endpoint name: EC50 (µM)

[[record]]
compound = "OCc1ccccc1O[C@@H]1O[C@H](CO)[C@@H](O)[C@H](O)[C@H]1O [Salicin]"
tgt = "TAS2R16 (Homo sapiens)"
endpoint_name = "EC50"
unit_text = "µM"
obs_value = 400


---

tgt: TAS2R10 (Homo sapiens)
Sequence (Q9NYW0 whole entry): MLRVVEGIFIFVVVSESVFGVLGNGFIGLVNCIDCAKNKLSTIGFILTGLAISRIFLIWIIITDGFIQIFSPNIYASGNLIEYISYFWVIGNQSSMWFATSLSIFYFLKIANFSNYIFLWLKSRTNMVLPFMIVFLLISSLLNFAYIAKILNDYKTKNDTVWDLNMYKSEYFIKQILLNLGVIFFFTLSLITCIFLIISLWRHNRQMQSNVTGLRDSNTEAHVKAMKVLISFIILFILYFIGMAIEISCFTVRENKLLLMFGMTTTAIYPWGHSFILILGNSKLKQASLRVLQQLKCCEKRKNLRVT
assay summary: cell-based
Set-up: bioluminescence intracellular calcium release assay, mt-clytin II with coelenterazine, Gα16-gust44 co-expressed
condition label: 293AD cells
endpoint name: EC50 (µM)

[[record]]
smiles_input = "COc1cc2c(cc1OC)[C@@]13CCN4CC5=CCO[C@H]6CC(=O)N2[C@H]1[C@H]6[C@H]5C[C@H]43"
endpoint_name = "EC50"
obs_value = 21

